The origin of these recorded values is ChEMBL document CHEMBL1144259.

Below is a list of entries, each paired with its recorded IC50 value.
- assay.name: Inhibitory activity against MCP-1 induced Calcium flux in […]
- Assay type: functional, cell-based
- assay.context: Homo sapiens, THP-1
Respond numerically; units are nM and should not be typed.

// solved cases for IC50 follow
{"columns": ["molecule", "experimental.result"],
 "data": [
  ["CCC(c1ccc(Cl)c(Cl)c1)n1c(S)nc(C(=O)NC)c1C(=O)NC (stereo not given)", 398],
  ["CC[C@@H](c1ccc(Cl)c(Cl)c1)n1c(S)nc(C(=O)OC)c1C(=O)OC", 7.94]
]}

# next molecule below
# IC50 (molecule: CCC(c1ccc(C(F)(F)F)c(F)c1)n1c(S)nc(C(=O)OC)c1C(=O)OC (stereo not given) ) is 20
